B1: NELF-E aptamer (parent)
chain: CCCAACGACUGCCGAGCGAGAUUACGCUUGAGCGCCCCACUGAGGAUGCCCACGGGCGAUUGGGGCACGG

variants of: B1; assay: HiTS-RAP; conditions: with NELF-E (Drosophila)
The threshold is 5 nM. Values of Kd beneath it are tagged t; values meeting or exceeding it are tagged f.

> print(dat)
    mutation.name  category
 1      A31G G32U         t
 2      A19G G63U         f
 3       C9G G16U         f
 4       G7U A67U         f
 5      U22G C38U         f
 6       A4G A24G         f
 7      U10G U22A         f
 8      C17U A43G         f
 9      G16U G63A         f
10           C12A         t
11        A8C C9G         f
12       A4G C17A         t
13      C13G C53U         t
14      G11U U41G         f
15      U41G A52G         t
